assay: label from the status in PepcDB records

{"residueSequence": "PMNGKEKAASYDKVVDVDVKLGQVSVKNPKGTAHEMPKTFTFDAVYDWNAKQFELYDETFRPLVDSVLQGFNGTIFAYGQTGTGKTYTMEGIRGDPEKRGVIPNSFDHIFTHISRSQNQQYLVRASYLEIYQEEIRDLLSKDQTKRLELKERPDTGVYVKDLSSFVTKSVKEIEHVMNVGNQNRSVGATNMNEHSSRSHAIFVITIECSEVGLDGENHIRVGKLNLVDLAGSERQAKTGAQGERLKEATKINLSLSALGNVISALVDGKSTHIPYRDSKLTRLLQDSLGGNAKTVMVANVGPASYNVEETLTTLRYANRAKNIKNKPRVNEDPKDAL", "protein production": "failed"}
{"residueSequence": "MNWSIPNILTVLRLLAAPGVAVMFLYFHRPWADWFALTLFILAAVTDFFDGYLARLWKQESKFGAMLDPIADKAMVVIALVIITGYSGMNPWLILPVTLILFREVFVSGLREFLGAKASLLKVTKLAKWKTTAQMVAIAILFLGTGLEHLEGIARQGMTWEQYARAVSAGEADPIRSCGMHGCSSYATWLGLALIWIAAALTFITGWDYFRKALPYLKDEK", "protein production": "not failed"}
{"residueSequence": "MIYSKVENFINENKQNAIFTEGASHENIGRIEENLQCDLPNSYKWFLEKYGAGGLFGVLVLGYNFDHASVVNRTNEYKEHYGLTDGLVVIEDVDYFAYCLDTNKMKDGECPVVEWDRVIGYQDTVADSFIEFFYNKIQEAKDDWDEDEDWDD", "protein production": "not failed"}
{"residueSequence": "NGDPQWLVQAARTAVLRTYEYGRALLKGLFTDSPFNIDIFDTQLRFVGLNIAERRAGVFQGTEYSGHTMREMAPPGLLDVDALEARQRRVLETGKALIDTEVVGHPVANSPREYVWSESILPLRDPSGRVIALGHVVSDV", "protein production": "failed"}
{"residueSequence": "MIRIDSVTKRYPDGTVAVDRLSLEIPDRSITVLVGPSGCGKTTTLRMINRMVEPSEGTILLDGADITKQPVNTLRRSMGYVIQNAGLFQHRTIVDNIATVPRMLGWGKERARSRARELMERVGLDASLARRYPYQLSGGQQQRVGVARALASDPPVLLMDEPFSAVDPVVRKGLQEELLRIQDELGKTIVFVTHDIDEAIRLGTMVAVMRTGGHLAQFAPPAELLSAPADAFVEDFLGTDRGIRRLSFFPSAGLELLTTPVVAIDSTAEQIAARGTPDVPYLLVTDVDGKALGWSEPKDLTAGKVVPERLLPYGRPFESGKDSLRAALDCAVLSPTGWAVAVDGTGRVVGVVSQETIGEAIRGAHAERRKADLAGLEHHHHHH", "protein production": "not failed"}
{"residueSequence": "MEEGVNMDIRPTRIELIRTRRRIRLAKKGLDLLKMKRSALIYEFLQISRTIRGMKENLRKEVVEALNIIKVASVLEGSLALERIANMSSDSRINVNSRNVMGVNIPTLEVSYNLSILSDVYRTVSVPVAIDDSIRRFQKLFYDLILIVEKENSLRNLLMEIDRTKRRSNAIENILIPRLEYQAKMIKMTLDERERDTFTTLKTIKKKIEAENDLEHHHHHH", "protein production": "failed"}
